All figures here come from PubChem BioAssay (NCI).

Test system: PC-3 prostate
Where a SMILES comes first, the peptide text is derived from it. [ ]: non-standard residue; d: D form. The star is where a group is joined. Nle = CCCC[C@H](N)C(=O)O; Cbz = O=C(OCc1ccccc1)*
Outcomes: Yes = active, No = inactive

[
  {
    "compound": "CCCOC(=O)c1ccc2c(c1)[N+](=O)C(C(=O)c1ccccc1)=C(C(F)(F)F)[N+]2=O",
    "className": "No"
  },
  {
    "compound": "CCOC(=O)c1ccc2c(c1)c1c(C)c3cnccc3c(C)c1n2C",
    "className": "Yes"
  },
  {
    "compound": "COc1cccc2c(Nc3ccc(C(=O)O)cc3)cc(-c3ccccc3)nc12",
    "className": "No"
  },
  {
    "compound": "COc1ccc(/C(COc2ccc3c(c2)oc(=O)c2cc(OC)ccc23)=N/O)cc1",
    "className": "No"
  },
  {
    "compound": "CCCC[C@@H](C=O)NC(=O)[C@H](CC(C)C)NC(=O)[C@H](CC(C)C)NC(=O)OCc1ccccc1 (Cbz-Leu-Leu-[Nle]-aldehyde)",
    "className": "No"
  },
  {
    "compound": "COc1ccc2c(c1)SC1=NNC(Cl)C(=O)N12 (configuration not stated)",
    "className": "No"
  },
  {
    "compound": "CCN(CC)CCNc1ccc(C)c2sc3ccccc3c(=O)c12 (tested in a mixture with another compound)",
    "className": "No"
  },
  {
    "compound": "CCOC(=O)Nc1nc2cc(OC)c(OC)c(OC)c2s1",
    "className": "No"
  },
  {
    "compound": "Cc1ccc2cc3c(N)c4c(C)ccc(C)c4nc3nc2c1",
    "className": "No"
  },
  {
    "compound": "C[C@]12CC[C@@H]3c4ccc(O)cc4CC[C@H]3[C@@H]1CC[C@@H]2NS(=O)(=O)c1cccc(OC(F)(F)F)c1",
    "className": "No"
  },
  {
    "compound": "Clc1nc(Cl)c2ncn(CC#CCn3cnc4c(Cl)nc(Cl)nc43)c2n1",
    "className": "No"
  },
  {
    "compound": "Cc1ccc(-c2c3c(nn2-c2ccc(S(=O)(=O)NC(=O)Nc4ccccc4)cc2)-c2ccccc2C3)cc1",
    "className": "No"
  }
]

###

System: OVCAR-3 ovarian
protocolText: NCI tumour cell line growth inhibition, 48 h
Form field: TGI (one value per entry).

[
  {
    "compound": "Cc1nc(Nc2ccc(Cl)cc2Cl)sc1C(=O)Nc1ccccc1",
    "TGI": "> 100 µM"
  },
  {
    "compound": "Cn1c(N)c(Cc2ccc(Cl)cc2)c(=O)[nH]c1=O",
    "TGI": "> 100 µM"
  },
  {
    "compound": "CC1=NN(C2=NS(=O)(=O)c3ccccc3N2C)C(=O)C1",
    "TGI": "> 100 µM"
  },
  {
    "compound": "O=C1C=C(Nc2ccccc2C(=O)c2ccccc2)c2ccccc2C1=O",
    "TGI": "> 100 µM"
  },
  {
    "compound": "C=C(CN1CCc2ccccc2C1)c1ccc(CCC(=O)Nc2ccccc2N)cc1",
    "TGI": "63.5 µM"
  },
  {
    "compound": "O=C(CSCC(=O)N/N=C\\c1cc(Cl)cc(Cl)c1O)N/N=C\\c1cc(Cl)cc(Cl)c1O",
    "TGI": "6.83 µM"
  },
  {
    "compound": "C[C@]12CC[C@H](O)CC1=CC[C@@H]1C2CC[C@]2(C)NC(=O)C(C#N)CC12 (stereo not given in full)",
    "TGI": "> 100 µM"
  },
  {
    "compound": "CNC(=O)CNC(=O)CCC(=O)OC",
    "TGI": "> 100 µM"
  },
  {
    "compound": "O=C(C=P(c1ccccc1)(c1ccccc1)c1ccccc1)CC(=S)CC(=O)C=P(c1ccccc1)(c1ccccc1)c1ccccc1",
    "TGI": "12.5 µM"
  },
  {
    "compound": "COC(=O)c1c(O)c2c(c3c1OC(C)(C)CC3)OC(C)(C)CC2",
    "TGI": "36.3 µM"
  }
]

###

Test system: KM12 colon
Outcomes: active, inactive

[
  {
    "molecule": "C=C1C(=O)c2sccc2C(c2ccc(OC)c(OC)c2)C1COC(C)=O (stereo not given)",
    "className": "inactive"
  },
  {
    "molecule": "O=C(/C=C/c1cccc(O)c1)c1cccc(-n2cc(-c3ccc(Cl)cc3)[nH]c2=O)c1",
    "className": "inactive"
  },
  {
    "molecule": "Cc1ccc2cc3c(N)c4c(C)ccc(C)c4nc3nc2c1",
    "className": "inactive"
  },
  {
    "molecule": "CC(=O)O[C@H]1C(=O)[C@@]2(C)[C@H]([C@H](OC(=O)c3ccccc3)[C@]3(O)C[C@H](OC(=O)[C@H](OC(=O)OC[C@@H]4COC(C)(C)O4)[C@@H](NC(=O)c4ccccc4)c4ccccc4)C(C)=C1C3(C)C)[C@]1(OC(C)=O)CO[C@@H]1C[C@@H]2O",
    "className": "active"
  },
  {
    "molecule": "COC(=O)c1ccc2[nH]c(O)c(C(=Nc3ccc(N(C)C(=O)CN4CCN(C)CC4)cc3)c3ccc(OC)cc3)c2c1",
    "className": "active"
  }
]

###

Tested on: COLO 205 colon
protocolText: NCI tumour cell line growth inhibition, 48 h
The label depends only on TGI: met if it is at least 30 µM, not met if it is smaller.

[
  {
    "compound": "C=C(CN1CCc2ccccc2C1)c1ccc(CCC(=O)Nc2ccccc2N)cc1",
    "targetOrSystem": "COLO 205 colon",
    "className": "met"
  },
  {
    "compound": "O=C1Cc2ccccc2N1/N=C\\c1ccc([N+](=O)[O-])cc1",
    "targetOrSystem": "COLO 205 colon",
    "className": "met"
  },
  {
    "compound": "CCOC(=O)C1=NC(c2ccccc2)(c2ccccc2)OC1=C(Cl)Cl",
    "targetOrSystem": "COLO 205 colon",
    "className": "met"
  },
  {
    "compound": "C[C@]12CCC3[C@@H](CC[C@@H]4c5nonc5CC[C@]34C)C1CCC2=O (stereo not given in full)",
    "targetOrSystem": "COLO 205 colon",
    "className": "met"
  },
  {
    "compound": "O=C(/C=C/c1cccc2ccccc12)c1ccccc1",
    "targetOrSystem": "COLO 205 colon",
    "className": "met"
  },
  {
    "compound": "CC(=O)NCCC1CN(C(=O)/C=C\\I)c2ccccc21 (stereo not given)",
    "targetOrSystem": "COLO 205 colon",
    "className": "not met"
  },
  {
    "compound": "C=C1C(=O)c2sccc2C(c2ccc(OC)c(OC)c2)C1COC(C)=O (stereo not given)",
    "targetOrSystem": "COLO 205 colon",
    "className": "not met"
  },
  {
    "compound": "COc1ccc2c3ccc4c(c3n(C)c2c1)C(=O)C=CC4=O",
    "targetOrSystem": "COLO 205 colon",
    "className": "met"
  },
  {
    "compound": "COc1cc2c(cc1OC)C1c3ccccc3CCCN1CC2 (stereo not given)",
    "targetOrSystem": "COLO 205 colon",
    "className": "met"
  },
  {
    "compound": "CNS(=O)(=O)NN(C)S(=O)(=O)c1ccc(OC)cc1",
    "targetOrSystem": "COLO 205 colon",
    "className": "met"
  },
  {
    "compound": "CCOP(=O)(OCC)OC1c2[nH]ccc2-c2cc(C(=O)OC)[nH]c2C1OC (stereo not given)",
    "targetOrSystem": "COLO 205 colon",
    "className": "met"
  },
  {
    "compound": "O=C(O)c1ccc(C=C2Sc3ccccc3S2)cc1",
    "targetOrSystem": "COLO 205 colon",
    "className": "met"
  },
  {
    "compound": "COC(=O)CCC(NC(=S)N/N=C(\\C)c1ccco1)C(=O)OC (stereo not given)",
    "targetOrSystem": "COLO 205 colon",
    "className": "met"
  },
  {
    "compound": "Cc1ccc(/C=C2\\CN(C)CC3=C2NC(=S)NC3c2ccc(C)cc2)cc1 (stereo not given)",
    "targetOrSystem": "COLO 205 colon",
    "className": "met"
  },
  {
    "compound": "Clc1ccc(-c2ccc(CNCC3CCNCC3)o2)c(-c2ccccc2)c1",
    "targetOrSystem": "COLO 205 colon",
    "className": "not met"
  },
  {
    "compound": "CC(C)=C1C(=O)c2c(Cl)sc(Cl)c2C1=O",
    "targetOrSystem": "COLO 205 colon",
    "className": "met"
  },
  {
    "compound": "O=C1Cc2c([nH]c3ccc(Cl)cc23)-c2ccccc2N1",
    "targetOrSystem": "COLO 205 colon",
    "className": "met"
  },
  {
    "compound": "COC(=O)C1=C(OC(=O)/C(=C/c2ccccc2)c2ccccc2)C(C(=O)OC)[C@@]2(O)[C@@H](C(=O)OC)[C@H](C)C[C@@H]1[C@@H]2C(=O)OC (stereo not given in full)",
    "targetOrSystem": "COLO 205 colon",
    "className": "met"
  },
  {
    "compound": "COc1cc(C(C)c2cc3c(cc2OCCN)OCO3)cc(OC)c1OC (stereo not given)",
    "targetOrSystem": "COLO 205 colon",
    "className": "met"
  },
  {
    "compound": "O=C(Nc1ccc(OCc2nnc(-c3ccc(Cl)cc3)o2)c(F)c1)Nc1ccc(Cl)c(Cl)c1",
    "targetOrSystem": "COLO 205 colon",
    "className": "met"
  },
  {
    "compound": "Cc1cn(C2CC(Br)C(COC(c3ccccc3)(c3ccccc3)c3ccccc3)O2)c(=O)[nH]c1=O (stereo not given)",
    "targetOrSystem": "COLO 205 colon",
    "className": "not met"
  },
  {
    "compound": "O=C1NC(c2cccc3ccccc23)Nc2ccc(O)cc21 (stereo not given)",
    "targetOrSystem": "COLO 205 colon",
    "className": "met"
  },
  {
    "compound": "COc1cc(/C=C2/SC(c3ccccc3)N(c3cc(Cl)ccc3Cl)C2=O)cc(OC)c1OC (stereo not given)",
    "targetOrSystem": "COLO 205 colon",
    "className": "met"
  },
  {
    "compound": "O=S(CCc1ccccc1)Nc1ccccc1 (stereo not given)",
    "targetOrSystem": "COLO 205 colon",
    "className": "met"
  },
  {
    "compound": "CCOC(=O)Cc1cc(=O)oc2cc(O)ccc12",
    "targetOrSystem": "COLO 205 colon",
    "className": "met"
  },
  {
    "compound": "Clc1nc(Cl)c2ncn(CC#CCn3cnc4c(Cl)nc(Cl)nc43)c2n1",
    "targetOrSystem": "COLO 205 colon",
    "className": "not met"
  }
]
